- assay_system: hemagglutinin of H5N1 clade 2.2 strain TY/TY/1/05 (influenza A virus TY/TY/1/05 (H5N1))
- test_description: cell-based or functional assay
Label true (1) when IC50, neutralisation of retroviral pseudotypes is strictly below 8 ng/mL; at or above that, label false (0).

Task: Find out if reported IC50, neutralisation of retroviral pseudotypes for FLD129 (antibody, V domains shown) VH: EVQLVESGGGLVQPGRSLRLSCAASGFTFSDFWMSWVRQAPGKGLEWVANIDQDGNERFYADSVKGRFTISRDNAKNSLYLQMTSLRADDTAVYYCARDGREGYFYGSGSFYNLKGLNWGQGTLLTVSS VL: QSVLTQPPSVSAAPGQRVTISCSGTSSNIGKNYVSWYQQLPGAAPKLLIYDNDKRPSGIPDRFSGSKSGTSATLGITGLQTGDEADYYCGTWDSSLSVGMFGGGTRLTVL is less than 8 ng/mL
Output: true (1)

Task: Is IC50, neutralisation of retroviral pseudotypes strictly under 8 ng/mL for the entry FLD132 (antibody, V domains shown) VH: EVQLVQSGAELKMPGESLKISCKASGYTFTNYWIGWVRQTPGKGLEWMGIIFPPDSQTSYSPSFQGQVTFSVDNSISVAYIQWSSLKASDTAIYYCARSGIFDWSAPLVEAFDIWGQGTVVTVSS VL: DIQLTQSPSFLSASVGDGVTITCRASQDIYIYLAWYQQKPGKAPKLLIYAASTLQGGVPSRFSGSGSGTEFTLTINNLQPEDFATYFCQQLNGYPLTFGGGTKVEIK ?
Output: true (1)

Task: IC50, neutralisation of retroviral pseudotypes strictly < 8 ng/mL for this binder? FLA3.14 (antibody, V domains shown) VH: EVQLVQSGAEVKKPGESLKISCQASGYSFTSRWIGWVRQMPGKGLEWVGFIYPSDSDVRYSPSFRGQVTISADKSISTAYLQWSSLKASDTAMYFCARLGGNKDYGDYLWYFDLWGRGALVTVSS VL: EIVMTQSPDTLSVSPGERATLSCRASQSVNRRLAWYQQKPGQAPRLLIHDASTRATGIPARFSGSGSGTEFTLTISSLQSEDFAVYYCQQYDNWLSFGQGTRLEIK
Output: false (0)

Task: Decide: IC50, neutralisation of retroviral pseudotypes of FLD84 (antibody, V domains shown) VH: QVQLQESGPGLVKPSETLSLICAVSGASISSSYWSWIRQPPGKGLEWIGYIYYSGVTKYNPSLKSRVTLSVDTSKNHFSLKLSYVTAADTAVYYCARNLPDIAVVTAVQDATPVWFDPWGPGTLVSVSS VL: DIQLTQSPSSLSASVGDRVTITCRASQGIITYLNWYQQKPGKAPKLLIYATYSLQNGVPSRFSGSGSGTDFTLTISSLQPEDFATYYCQQSYSSLMFTFGQGTKLDIK strictly below 8 ng/mL?
Output: false (0)

Task: Does the reported IC50, neutralisation of retroviral pseudotypes of FLD20.19 (antibody, V domains shown) VH: QVQLVQSGAEVKKPGSSVTVSCKASGGTFSNYGISWVRQAPGQGLDWMGGIIPLFGTANYAQKFQGRVTITADESTSSSNMELSSLRSEDTAVYYCARDVHNYDFLTGYPLHLYGMDVWGQGTTVTVSS VL: DIQMTQSPSSLSASVGDRVTITCRASQSISTYLNWYQQKPGIPPKLLINVASSLQSGVPSRFSGSGSGTDFTLTISSLQPEDFASYYCQQTYSSPPTFGQGTKVEIK stay below 8 ng/mL?
Output: false (0)

Task: # check: IC50, neutralisation of retroviral pseudotypes < 8 ng/mL for FLD93 (antibody, V domains shown) VH: WWQLVQSGAEVKKPGSSVKVSCKASGGTFSSYDISWVRQAPGQGLEWMGGIIPIYGTANYAQKFQGRVTITADESTSTAYMELSSLRSEDTAVYYCARAGGDSSGYYGALGRFFQHWGQGTLVTVSS VL: VIWMTQSPSLLSASTGDRVTISCRMSQGISSYLAWYQQKPGKAPELLIHTAYTLKSGVPSRFSGSGSGKDFTLTISGLQSEDFATYYCQQYYSFPYTFGQGTKVEIK
Output: false (0)
